Tested on: bacterial inoculum
Assay: Thermal stability: in vitro lytic assay after 30 min heating
Type: cell-based
Conditions: 30 minutes at 40° C.
Observed property: % of CF-301 wild-type, 40° C. (%)
Numbers only, in %.

Exercise: Need % of CF-301 wild-type, 40° C., item pp55: Modified PlySs2 lysin, SEQ ID NO: 3: L92W, V104S, V128T, Y137S; extra C-terminal lysine (+246K) (protein) MTTVNEALNNVRAQVGSGVSVGNGECYALASWYERMISPDATVGLGAGVGWVSGAIGDTISAKNIGSSYNWQANGWTVSTSGPFKAGQIVTWGATPGNPYGHVSIVEAVDGDRLTILEQNYGGKRYPTRNYYSAASSRQQVVHYITPPGTVAQSAPNLAGSRSYRETGTMTVTVDALNVRRAPNTSGEIVAVYKRGESFDYDTVIIDVNGYVWVSYIGGSGKRNYVATGATKDGKRFGNAWGTFK
Key: 110.8
